Catalogue of compounds with associated Kd
assayTarget: human TYK2 (JH2 domain-pseudokinase) (Homo sapiens (Human))
Sequence (P29597 556-888): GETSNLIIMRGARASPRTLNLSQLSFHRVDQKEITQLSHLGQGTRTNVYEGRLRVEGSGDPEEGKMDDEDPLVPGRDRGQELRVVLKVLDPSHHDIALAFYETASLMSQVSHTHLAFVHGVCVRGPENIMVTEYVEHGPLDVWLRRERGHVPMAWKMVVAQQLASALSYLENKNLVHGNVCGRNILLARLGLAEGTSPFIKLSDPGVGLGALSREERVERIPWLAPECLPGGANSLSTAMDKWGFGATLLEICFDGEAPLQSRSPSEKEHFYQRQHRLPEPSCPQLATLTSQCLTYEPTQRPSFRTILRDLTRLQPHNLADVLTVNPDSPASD
assayMethodText: TYK2 JH2 Domain Binding Assay (KINOMEscan)

compound="CNc1cc(C2=CN(C(C)C)C3N=CC(F)=CC23)nc2c(C(=O)N[C@H]3CC[C@H]3O)cnn12 (stereo partly drawn)" measuredmetric=Kd assayresult="1 to 10 nM"
compound=CNc1cc(Nc2cccn([C@H]3CCCC[C@H]3O)c2=O)nc2c(C(=O)N[C@@H]3C[C@@H]3F)cnn12 measuredmetric=Kd assayresult="< 0.2 nM"
compound=CNc1cc(Nc2cccn(-c3ccccn3)c2=O)nc2c(C(=O)N[C@@H]3CC[C@H]3COC)cnn12 measuredmetric=Kd assayresult="0.2 to 1 nM"

State the recorded Kd for this entry: `CNc1cc(-c2cn(C3CC3)c3ncccc23)nc2c(C(=O)N[C@@H]3CC[C@H]3OC)cnn12`
< 0.2 nM

Also check `[2H]C([2H])([2H])Oc1ncccc1Nc1cc(NC)n2ncc(C(=O)N[C@H]3[C@@H]4COC[C@@H]43)c2n1`
< 0.2 nM

Also check `CNc1cc(Nc2cccc([C@@H]3CCCOC3)n2)nc2c(C(=O)N[C@H]3CC[C@H]3O)cnn12`
1 to 10 nM

Also check `CNc1cc(Nc2cc(Cl)cn(C3CCOCC3)c2=O)nc2c(C(=O)NCC(C)(C)CO)cnn12`
< 0.2 nM

Also check `CNc1cc(-c2cn([C@H]3CCN(CCF)C3)c3cnccc23)nc2c(C(=O)NC3CC3)cnn12`
0.2 to 1 nM

Also check `CNc1cc(Nc2cccn(-c3cnc(C(=O)N(C)C)cn3)c2=O)nc2c(C(N)=O)cnn12`
< 0.2 nM

Also check `CNc1cc(-c2cn([C@H]3CCN(CCF)C3)c3cnccc23)nc2c(C(=O)N[C@@H]3C[C@@H]3F)cnn12`
0.2 to 1 nM

Also check `CNc1cc(Nc2cccn(C(C)C)c2=O)cc2c(C(=O)N[C@H]3CC[C@@]3(C)O)cnn12`
< 0.2 nM

Also check CNc1cc(C2=CN(C(C)C)C3N=CC(F)=CC23)nc2c(C(=O)N[C@@H]3CC[C@@H]3O)cnn12 (stereo partly drawn)
1 to 10 nM
